test system: YANK2; construct: gene STK32B; details: concentration: 1 μM, replicates: in singlicate; n = 1;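 further: KINOMEscan kinase panel screen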
test_readout: %Inh (%)
Give the number; % is assumed, so skip it.

Exam item: Read off the recorded %Inh for COC(=O)C(Cc1ccccc1)NC(=O)NC1CCN(c2ccnc(Nc3ccc(F)cc3)n2)C1 (centres unmarked)
Marked response: 0

Exam item: Read off the recorded %Inh for O=C(Nc1n[nH]c2nc(-c3cccs3)c(Br)cc12)C1CC1
Marked response: 11

Exam item: Read off the recorded %Inh for O=c1cc(N2CCOCC2)nc2n(Cc3cccc(Cl)c3Cl)c3ccccc3n12
Marked response: 0

Exam item: Read off the recorded %Inh for O=C(Nc1n[nH]c2nc(-c3ccco3)c(Br)cc12)C1CCN(Cc2ccccc2)C1.O=C(O)[C@H](O)[C@@H](O)C(=O)O (centres unmarked)
Marked response: 9

Exam item: Read off the recorded %Inh for COc1ccc(Nc2nccc(NCCNC(=O)Nc3cc(C)ccc3C)n2)cc1
Marked response: 0

Exam item: Read off the recorded %Inh for CSc1ccc(-c2nc3n(c2-c2ccncc2)CCC3)cc1
Marked response: 6

Exam item: Read off the recorded %Inh for COc1ccc(Nc2nccc(N3CCC(NC(=O)C(C)c4ccc(Cl)cc4)CC3)n2)cc1 (centres unmarked)
Marked response: 2

Exam item: Read off the recorded %Inh for FC(F)(F)c1ccccc1-c1cc(-c2c[nH]nc2-c2ccccn2)ccn1
Marked response: 18

Exam item: Read off the recorded %Inh for Cn1cncc1C(=O)NC1CCN(c2ccnc(Nc3ccc(F)cc3)n2)C1 (centres unmarked)
Marked response: 4

Exam item: Read off the recorded %Inh for Fc1ccc(-c2nc3n(c2-c2ccncc2)CCS3)cc1
Marked response: 5

Exam item: Read off the recorded %Inh for Cc1ccc(NC(=O)Nc2ccc(Cl)c(C(F)(F)F)c2)cc1-c1ccc(C(=O)Nc2ccncc2)cc1
Marked response: 0

Exam item: Read off the recorded %Inh for Cn1cncc1-c1cc2c(Nc3ccc(OCc4ccccc4)cc3)ncnc2cn1
Marked response: 0

Exam item: Read off the recorded %Inh for Cc1ccc(NC(=O)Nc2ccc(Cl)cc2)cc1-c1ccc(C(=O)Nc2ccncc2)cc1
Marked response: 4

Exam item: Read off the recorded %Inh for CNC(=O)c1ccc(C)c(-n2c(C)cc(OCc3ccc(F)cc3F)c(Br)c2=O)c1
Marked response: 0

Exam item: Read off the recorded %Inh for COc1cc2ncnc(Nc3cccc(Br)c3)c2cc1OC.Cl
Marked response: 0

Exam item: Read off the recorded %Inh for COc1ccc(Nc2nccc(N3CCC(NC(=O)C(C)c4ccc(Cl)cc4)C3)n2)cc1 (centres unmarked)
Marked response: 7

Exam item: Read off the recorded %Inh for O=C1NC(=O)C(c2ccc(Cl)cc2)=C1Nc1ccc(O)cc1
Marked response: 0

Exam item: Read off the recorded %Inh for COc1ccc(CSc2nnc(-c3ccc4ncsc4c3)o2)cc1C(F)(F)F
Marked response: 11

Exam item: Read off the recorded %Inh for Cc1ccccc1Cn1ccn2c(=O)cc(N3CCOCC3)nc12
Marked response: 0

Exam item: Read off the recorded %Inh for Cc1ccc(NC(=O)c2ccc(Cl)cc2)cc1-c1ccc(C(=O)Nc2ccncc2)cc1
Marked response: 10

Exam item: Read off the recorded %Inh for Cc1c(Cn2c3ccccc3n3c(=O)cc(N4CCOCC4)nc23)cccc1C(F)(F)F
Marked response: 0

Exam item: Read off the recorded %Inh for CC(=O)c1c(C)c2cnc(Nc3ccn(C)n3)nc2n(C2CCCC2)c1=O
Marked response: 0

Exam item: Read off the recorded %Inh for COc1cccc(C2=C(Nc3cc(Cl)c(O)c(Cl)c3)C(=O)NC2=O)c1
Marked response: 0

Exam item: Read off the recorded %Inh for Cc1ccc(-c2nc(Nc3ccncc3)c3ccccc3n2)s1
Marked response: 12

Exam item: Read off the recorded %Inh for Cc1nccc(-c2c(-c3ccc(F)cc3)ncn2CCCN2CCOCC2)n1.Cl
Marked response: 0

Exam item: Read off the recorded %Inh for Nc1ncnc2occ(-c3ccc4c(c3)CCN4C(=O)Cc3cc(F)ccc3F)c12
Marked response: 0

---

test system: FES; conditions: concentration: 1 μM, replicates: in singlicate; n = 1
test_readout: %Inh
Could you give the number and then its unit, please?

Exam item: Read off the recorded %Inh for CNc1nc(-c2ccc3c(N)n[nH]c3c2)cc(N2C[C@@H](C(=O)Nc3ccccc3)CC[C@H]2C)n1 [GSK2298859]
Marked response: 0%

Exam item: Read off the recorded %Inh for CCCCc1nn2ncccc2c1-c1ccnc(NC2CC2)n1 [GW684374]
Marked response: 0%

Exam item: Read off the recorded %Inh for COC(=O)c1cccc(NC(=O)NC2CCN(c3ccnc(Nc4ccc(OC)cc4)n3)C2)c1 (stereo not shown) [GSK1379746]
Marked response: 0%

Exam item: Read off the recorded %Inh for Fc1ccc(-c2nc3n(c2-c2ccncc2)CCS3)cc1 [GI98581]
Marked response: 0%

Exam item: Read off the recorded %Inh for COc1ccc(CSc2nnc(-c3ccc4c(c3)CCO4)o2)cc1
Marked response: 12%

Exam item: Read off the recorded %Inh for Cc1ccc(NC(=O)Nc2ccccc2F)cc1-c1ccc(C(=O)Nc2ccncc2)cc1 [GSK1398477]
Marked response: 11%

Exam item: Read off the recorded %Inh for Nc1cccc(-c2ccc3c(N)n[nH]c3c2)n1 [GSK2192730]
Marked response: 0%

---

test system: RAF1; conditions: concentration: 1 μM, replicates: in singlicate; n = 1
test_readout: %Inh (%)
Give the number; % is assumed, so skip it.

Exam item: Read off the recorded %Inh for COC(=O)c1cccc(NC(=O)NC2CCN(c3ccnc(Nc4ccc(OC)cc4)n3)C2)c1 (centres unmarked)
Marked response: 23

Exam item: Read off the recorded %Inh for NS(=O)(=O)c1cccc(N/C=C2\C(=O)Nc3ccc(S(=O)(=O)Cc4c(Cl)cccc4Cl)cc32)c1
Marked response: 15

Exam item: Read off the recorded %Inh for Nc1ncnc2occ(-c3ccc4c(c3)CCN4C(=O)Cc3cc(F)ccc3F)c12
Marked response: 0

Exam item: Read off the recorded %Inh for CC(=O)c1c(C)c2cnc(Nc3ccc(N4CCNCC4)cn3)nc2n(C2CCCC2)c1=O
Marked response: 0

Exam item: Read off the recorded %Inh for O=C(Nc1n[nH]c2nc(-c3ccco3)c(Br)cc12)C1CCN(Cc2ccccc2)C1.O=C(O)[C@H](O)[C@@H](O)C(=O)O (centres unmarked)
Marked response: 15

---

tested on: PFTK1; construct: gene CDK14; details: concentration: 1 μM, replicates: in singlicate; n = 1
Label yes when %Inh < 5%; otherwise no.

Exam item: Please state whether %Inh is below 5% for COc1ccc(CSc2nnc(-c3ccc4nccn4c3)o2)cc1C(F)(F)F
Marked response: yes

Exam item: Please state whether %Inh is below 5% for COc1ccc(Nc2nccc(NCCNC(=O)Nc3cc(C)ccc3C)n2)cc1 [GSK1379899]
Marked response: no

Exam item: Please state whether %Inh is below 5% for Cc1ccc(-c2nc(Nc3ccncc3)c3ccccc3n2)s1 [GSK189015]
Marked response: no

Exam item: Please state whether %Inh is below 5% for Cc1ccc(NC(=O)Nc2ccccc2)cc1-c1ccc(C(=O)Nc2ccncc2)cc1 [GSK1398471]
Marked response: no

---

system: CAMKK2; conditions: concentration: 1 μM, replicates: in singlicate; n = 1
If the reported %Inh equals or exceeds 10%, assign label 1. If not, assign label 0.

Exam item: Identify whether the reported %Inh of the following molecule is 10% or greater: CNC(=O)c1ccc(C)c(-n2c(C)cc(OCc3ccc(F)cc3F)c(Br)c2=O)c1
Marked response: label 0

Exam item: Identify whether the reported %Inh of the following molecule is 10% or greater: Cn1cncc1C(=O)NC1CCN(c2ccnc(Nc3ccc(F)cc3)n2)C1 (centres unmarked) [GSK1379717]
Marked response: label 1

Exam item: Identify whether the reported %Inh of the following molecule is 10% or greater: Cl.Cl.Cl.N#Cc1ccc(CCNc2nccc(-c3cccc(CN4CCNCC4)c3)n2)cc1 [GSK2137462]
Marked response: label 1

Exam item: Identify whether the reported %Inh of the following molecule is 10% or greater: COC(=O)c1cccc(NC(=O)NC2CCN(c3ccnc(Nc4ccc(OC)cc4)n3)C2)c1 (centres unmarked) [GSK1379746]
Marked response: label 0

Exam item: Identify whether the reported %Inh of the following molecule is 10% or greater: O=C(Nc1n[nH]c2cc(-c3ccsc3)ccc12)C1CC1 [SB-732932]
Marked response: label 0

Exam item: Identify whether the reported %Inh of the following molecule is 10% or greater: COC(=O)C(NC(=O)NC1CCN(c2ccnc(Nc3ccc(F)cc3)n2)C1)c1ccccc1 (centres unmarked) [GSK1379712]
Marked response: label 1

Exam item: Identify whether the reported %Inh of the following molecule is 10% or greater: NS(=O)(=O)c1cccc(N/C=C2\C(=O)Nc3ccc(S(=O)(=O)Cc4c(Cl)cccc4Cl)cc32)c1 [GSK398099]
Marked response: label 1

Exam item: Identify whether the reported %Inh of the following molecule is 10% or greater: CC(=O)c1c(C)c2cnc(Nc3ccn(C)n3)nc2n(C2CCCC2)c1=O
Marked response: label 1

Exam item: Identify whether the reported %Inh of the following molecule is 10% or greater: CCc1ccc(-c2ccc3c(c2)-c2n[nH]cc2S(=O)(=O)N3C)cc1
Marked response: label 0

Exam item: Identify whether the reported %Inh of the following molecule is 10% or greater: CC(C)c1cc(-c2ccc3c(N)n[nH]c3c2)nc(N)n1 [GSK2250882]
Marked response: label 1

Exam item: Identify whether the reported %Inh of the following molecule is 10% or greater: Fc1ccc(-c2nc3n(c2-c2ccncc2)CCS3)cc1 [GI98581]
Marked response: label 0

Exam item: Identify whether the reported %Inh of the following molecule is 10% or greater: CC(=O)c1cccc(NC(=O)NC2CCN(c3ccnc(Nc4ccc(F)cc4)n3)C2)c1 (centres unmarked) [GSK1379710]
Marked response: label 1

Exam item: Identify whether the reported %Inh of the following molecule is 10% or greater: Cc1ccc(NC(=O)Nc2ccc(Cl)cc2)cc1-c1ccc(C(=O)Nc2ccncc2)cc1 [GSK1398472]
Marked response: label 0

Exam item: Identify whether the reported %Inh of the following molecule is 10% or greater: COC(=O)C(Cc1ccccc1)NC(=O)NC1CCN(c2ccnc(Nc3ccc(F)cc3)n2)C1 (centres unmarked) [GSK1379714]
Marked response: label 0

Exam item: Identify whether the reported %Inh of the following molecule is 10% or greater: CCn1c(-c2c(N)noc2C)nc2cnccc21 [SB-737856]
Marked response: label 0

Exam item: Identify whether the reported %Inh of the following molecule is 10% or greater: Cc1ccc(NC(=O)Nc2ccccc2)cc1-c1ccc(C(=O)Nc2ccncc2)cc1 [GSK1398471]
Marked response: label 1

Exam item: Identify whether the reported %Inh of the following molecule is 10% or greater: COc1cccc(C2=C(Nc3cc(Cl)c(O)c(Cl)c3)C(=O)NC2=O)c1 [SB-390767]
Marked response: label 0
